tested on: EPLC-272H; experiment: relative viability (nuclei count vs DMSO), 5 days (fraction); higher = more cells survive; conditions: first compound 0.3162 µM
measuredProperty: relative viability
Answer with the value's number alone.

Exercise: Lab note: need relative viability for CCN(CC)CCCCNc1ncc2cc(-c3cc(OC)cc(OC)c3)c(NC(=O)NC(C)(C)C)nc2n1 + NC(=O)Nc1cc(-c2cccc(F)c2)sc1C(=O)N[C@H]1CCCNC1 [AZD7762] (partner 0.2 µM) on EPLC-272H, anyone have it?
Key: 0.188

Exercise: Also, O=c1cc(N2CCOCC2)oc2c(-c3cccc4c3sc3ccccc34)cccc12 + CC(=O)c1c(C)c2cnc(Nc3ccc(N4CCNCC4)cn3)nc2n(C2CCCC2)c1=O [Palbociclib] (partner 0.5 µM) please.
Key: 0.325

Exercise: Also, O=c1cc(N2CCOCC2)oc2c(-c3cccc4c3sc3ccccc34)cccc12 + CS(=O)(=O)N1CCN(Cc2cc3nc(-c4cccc5[nH]ncc45)nc(N4CCOCC4)c3s2)CC1 [Pictilisib] (partner 1 µM) please.
Key: 0.374

Exercise: Also, CCN(CC)CCCCNc1ncc2cc(-c3cc(OC)cc(OC)c3)c(NC(=O)NC(C)(C)C)nc2n1 + CC(C)C[C@H](NC(=O)[C@H](Cc1ccccc1)NC(=O)c1cnccn1)B(O)O [Bortezomib] (partner 0.002 µM) please.
Key: 1.03

Exercise: Also, O=c1cc(N2CCOCC2)oc2c(-c3cccc4c3sc3ccccc34)cccc12 + Nc1nc2[nH]cc(CCc3ccc(C(=O)N[C@@H](CCC(=O)O)C(=O)O)cc3)c2c(=O)[nH]1 [Pemetrexed] (partner 0.2 µM) please.
Key: 0.368

Exercise: Also, O=c1cc(N2CCOCC2)oc2c(-c3cccc4c3sc3ccccc34)cccc12 + O=C(c1cc(Cc2n[nH]c(=O)c3ccccc23)ccc1F)N1CCN(C(=O)C2CC2)CC1 [Olaparib] (partner 8 µM) please.
Key: 0.776

Exercise: Also, O=c1cc(N2CCOCC2)oc2c(-c3cccc4c3sc3ccccc34)cccc12 + CC1(C)CCC(c2ccc(Cl)cc2)=C(CN2CCN(c3ccc(C(=O)NS(=O)(=O)c4ccc(N[C@H](CCN5CCOCC5)CSc5ccccc5)c(S(=O)(=O)C(F)(F)F)c4)cc3)CC2)C1 [Navitoclax] (partner 0.5 µM) please.
Key: 1.04

Exercise: Also, CCN(CC)CCCCNc1ncc2cc(-c3cc(OC)cc(OC)c3)c(NC(=O)NC(C)(C)C)nc2n1 + C[C@]1(O)C[C@@H](c2nc(-c3ccc4ccc(-c5ccccc5)nc4c3)c3c(N)nccn32)C1 [Linsitinib] (partner 1 µM) please.
Key: 1.32

Exercise: Also, O=c1cc(N2CCOCC2)oc2c(-c3cccc4c3sc3ccccc34)cccc12 + Cc1nc(Nc2ncc(C(=O)Nc3c(C)cccc3Cl)s2)cc(N2CCN(CCO)CC2)n1 [Dasatinib] (partner 0.075 µM) please.
Key: 0.339

Exercise: Also, CCN(CC)CCCCNc1ncc2cc(-c3cc(OC)cc(OC)c3)c(NC(=O)NC(C)(C)C)nc2n1 + Nc1ncn([C@H]2C[C@H](O)[C@@H](CO)O2)c(=O)n1 [Decitabine] (partner 2 µM) please.
Key: 0.378

---

tested on: NCI-H1793; experiment: relative viability (nuclei count vs DMSO), 5 days (fraction); higher = more cells survive; settings: first compound 0.2 µM
measuredProperty: relative viability
Answer with the value's number alone.

Exercise: What does the record list as relative viability for COCC1(CO)C(=O)C2CCN1CC2 (stereo not drawn) [PRIMA-1MET] + CS(=O)(=O)CCNCc1ccc(-c2ccc3ncnc(Nc4ccc(OCc5cccc(F)c5)c(Cl)c4)c3c2)o1 [Lapatinib] (partner 2 µM) ?
Key: 0.707

Exercise: Also, COCC1(CO)C(=O)C2CCN1CC2 (stereo not drawn) [PRIMA-1MET] + N=C(N)NC(=N)NCCc1ccccc1 [Phenformin] (partner 250 µM) please.
Key: 0.465

Exercise: Also, COCC1(CO)C(=O)C2CCN1CC2 (stereo not drawn) [PRIMA-1MET] + O=C(CCCCCCC(=O)Nc1ccccc1)NO [Vorinostat] (partner 1 µM) please.
Key: 0.932

---

test system: EKVX; experiment: relative viability (nuclei count vs DMSO), 5 days (fraction); higher = more cells survive; details: first compound 0.1 µM
measuredProperty: relative viability
Answer with the value's number alone.

Exercise: What does the record list as relative viability for O=c1cc(N2CCOCC2)oc2c(-c3cccc4c3sc3ccccc34)cccc12 + C[C@@H](Oc1cc(-c2cnn(C3CCNCC3)c2)cnc1N)c1c(Cl)ccc(F)c1Cl [Crizotinib] (partner 1 µM) ?
Key: 1.18

Exercise: Also, CCN(CC)CCCCNc1ncc2cc(-c3cc(OC)cc(OC)c3)c(NC(=O)NC(C)(C)C)nc2n1 + Cc1nc(NC(=O)N2CCC[C@H]2C(N)=O)sc1-c1ccnc(C(C)(C)C(F)(F)F)c1 [Alpelisib] (partner 2 µM) please.
Key: 0.875

Exercise: Also, CCN(CC)CCCCNc1ncc2cc(-c3cc(OC)cc(OC)c3)c(NC(=O)NC(C)(C)C)nc2n1 + O=C(c1cc(Cc2n[nH]c(=O)c3ccccc23)ccc1F)N1CCN(C(=O)C2CC2)CC1 [Olaparib] (partner 8 µM) please.
Key: 1.07

Exercise: Also, CCN(CC)CCCCNc1ncc2cc(-c3cc(OC)cc(OC)c3)c(NC(=O)NC(C)(C)C)nc2n1 + CC(=O)c1c(C)c2cnc(Nc3ccc(N4CCNCC4)cn3)nc2n(C2CCCC2)c1=O [Palbociclib] (partner 0.5 µM) please.
Key: 0.31

---

tested on: HCC-44; assay: relative viability (nuclei count vs DMSO), 5 days (fraction); higher = more cells survive; conditions: first compound 0.6325 µM
So I've got a bunch of molecules here, and I need their relative viability values.
Answer with the value's number alone.

Exercise: Lab note: need relative viability for COCC1(CO)C(=O)C2CCN1CC2 (stereo unspecified) [PRIMA-1MET] + CC(=O)c1c(C)c2cnc(Nc3ccc(N4CCNCC4)cn3)nc2n(C2CCCC2)c1=O [Palbociclib] (partner 0.5 µM) on HCC-44, anyone have it?
Key: 0.873

Exercise: Also, COCC1(CO)C(=O)C2CCN1CC2 (stereo unspecified) [PRIMA-1MET] + CC1(C)CCC(c2ccc(Cl)cc2)=C(CN2CCN(c3ccc(C(=O)NS(=O)(=O)c4ccc(N[C@H](CCN5CCOCC5)CSc5ccccc5)c(S(=O)(=O)C(F)(F)F)c4)cc3)CC2)C1 [Navitoclax] (partner 0.5 µM) please.
Key: 0.689

Exercise: Also, COCC1(CO)C(=O)C2CCN1CC2 (stereo unspecified) [PRIMA-1MET] + C[C@]1(O)C[C@@H](c2nc(-c3ccc4ccc(-c5ccccc5)nc4c3)c3c(N)nccn32)C1 [Linsitinib] (partner 1 µM) please.
Key: 0.528

Exercise: Also, COCC1(CO)C(=O)C2CCN1CC2 (stereo unspecified) [PRIMA-1MET] + Cc1cc(Nc2cc(N3CCN(C)CC3)nc(Sc3ccc(NC(=O)C4CC4)cc3)n2)n[nH]1 [Tozasertib] (partner 0.1 µM) please.
Key: 0.958

Exercise: Also, COCC1(CO)C(=O)C2CCN1CC2 (stereo unspecified) [PRIMA-1MET] + CC(C)C[C@H](NC(=O)[C@H](Cc1ccccc1)NC(=O)c1cnccn1)B(O)O [Bortezomib] (partner 0.002 µM) please.
Key: 0.76

Exercise: Also, COCC1(CO)C(=O)C2CCN1CC2 (stereo unspecified) [PRIMA-1MET] + O=C(CCCCCCC(=O)Nc1ccccc1)NO [Vorinostat] (partner 1 µM) please.
Key: 1.03

---

test system: LU99A; assay: relative viability (nuclei count vs DMSO), 5 days (fraction); higher = more cells survive; details: first compound 0.6325 µM
So I've got a bunch of molecules here, and I need their relative viability values.
Answer with the value's number alone.

Exercise: What does the record list as relative viability for COCC1(CO)C(=O)C2CCN1CC2 (stereo unspecified) [PRIMA-1MET] + N=C(N)NC(=N)NCCc1ccccc1 [Phenformin] (partner 250 µM) ?
Key: 0.736

Exercise: Also, COCC1(CO)C(=O)C2CCN1CC2 (stereo unspecified) [PRIMA-1MET] + CCNC(=O)c1noc(-c2cc(C(C)C)c(O)cc2O)c1-c1ccc(CN2CCOCC2)cc1 [Luminespib] (partner 0.01 µM) please.
Key: 0.233

Exercise: Also, COCC1(CO)C(=O)C2CCN1CC2 (stereo unspecified) [PRIMA-1MET] + C[C@@H](Oc1cc(-c2cnn(C3CCNCC3)c2)cnc1N)c1c(Cl)ccc(F)c1Cl [Crizotinib] (partner 1 µM) please.
Key: 0.475

Exercise: Also, COCC1(CO)C(=O)C2CCN1CC2 (stereo unspecified) [PRIMA-1MET] + Cc1cc(Nc2cc(N3CCN(C)CC3)nc(Sc3ccc(NC(=O)C4CC4)cc3)n2)n[nH]1 [Tozasertib] (partner 0.1 µM) please.
Key: 0.268

Exercise: Also, COCC1(CO)C(=O)C2CCN1CC2 (stereo unspecified) [PRIMA-1MET] + C[C@]1(O)C[C@@H](c2nc(-c3ccc4ccc(-c5ccccc5)nc4c3)c3c(N)nccn32)C1 [Linsitinib] (partner 1 µM) please.
Key: 0.439

Exercise: Also, COCC1(CO)C(=O)C2CCN1CC2 (stereo unspecified) [PRIMA-1MET] + NC(=O)Nc1cc(-c2cccc(F)c2)sc1C(=O)N[C@H]1CCCNC1 [AZD7762] (partner 0.2 µM) please.
Key: 0.167
